# assay system: Recombinant pure human SQSTM1 protein (Homo sapiens, UniProt Q13501)
# Construct: purchased Origene
# Sequence (Q13501 whole entry): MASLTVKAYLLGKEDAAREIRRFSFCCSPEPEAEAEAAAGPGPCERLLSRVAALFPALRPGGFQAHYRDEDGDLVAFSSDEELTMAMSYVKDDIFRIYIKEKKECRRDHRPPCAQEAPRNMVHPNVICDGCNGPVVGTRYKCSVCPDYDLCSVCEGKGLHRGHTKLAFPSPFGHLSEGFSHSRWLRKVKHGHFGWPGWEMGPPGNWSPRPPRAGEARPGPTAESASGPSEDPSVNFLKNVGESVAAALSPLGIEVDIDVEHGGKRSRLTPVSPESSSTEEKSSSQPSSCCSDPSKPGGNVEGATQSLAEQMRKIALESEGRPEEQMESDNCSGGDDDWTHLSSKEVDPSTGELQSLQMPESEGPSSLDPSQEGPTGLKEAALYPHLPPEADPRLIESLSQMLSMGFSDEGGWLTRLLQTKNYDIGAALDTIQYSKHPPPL
# experiment: Inhibition of IA-Rhodamine labeling of SQSTM1 (gel-based, densitometry)
# Format: binding
# condition set: 50 μM of test compound (initial screen); 30 min at 37° C., then 100 nM IA-Rhodamine 1 hour; inhibition of target labeling by densitometry
Classification scheme (inhibition at 50 µM): I (below 20%), II (20% to below 50%), III (50% or more)

Field: example entries. Status: answers known.
Hi there! Could you help me figure out the category for O=C(CCl)N1CCCCC(O)C1 (stereo not drawn) [Compound 44] please?
I

Hi there! Could you help me figure out the category for CC1(C)CCCN(C(=O)CCl)CC1 [Compound 23] please?
II

Hi there! Could you help me figure out the category for O=C(CCl)N1CCCS(=O)(=O)CC1 [Compound 52] please?
II

Others:
Hi there! Could you help me figure out the category for O=C(NCC1CCCCN(C(=O)CCl)C1)OCc1ccccc1 (stereo not drawn) [Compound 27] please?
III

Hi there! Could you help me figure out the category for COc1ccc(CN(C(=O)CCl)c2nccs2)c(OC)c1 [Compound 1] please?
III

Hi there! Could you help me figure out the category for O=C(NCC1(O)CCCN(C(=O)CCl)CC1)OCc1ccccc1 (stereo not drawn) [Compound 34] please?
I

Hi there! Could you help me figure out the category for CC(C)(C)OC(=O)N1CCC(N(C(=O)CCl)C2CCOCC2)CC1 [Compound 7] please?
III

Hi there! Could you help me figure out the category for O=C(CCl)N1Cc2ccnn2CC(O)C1 (stereo not drawn) [Compound 55] please?
II

###

# assay system: Recombinant pure human SQSTM1 protein (Homo sapiens, UniProt Q13501)
# Construct: purchased Origene
# experiment: Inhibition of IA-Rhodamine labeling of SQSTM1 (gel-based, densitometry)
# Format: binding
# condition set: 50 μM of test compound (initial screen); 30 min at 37° C., then 100 nM IA-Rhodamine 1 hour; inhibition of target labeling by densitometry
recorded endpoint: inhibition at 50 µM (%)
A number alone suffices; assume %.

Returns the measured inhibition at 50 µM for the input molecule. Input: CC1CCCCN(C(=O)CCl)C1 (centres unmarked)
39

Returns the measured inhibition at 50 µM for the input molecule. Input: O=C(CCl)N1CCCC(O)CC1 (centres unmarked)
29

Returns the measured inhibition at 50 µM for the input molecule. Input: CC1CCCN(C(=O)CCl)CC1 (centres unmarked)
11

Returns the measured inhibition at 50 µM for the input molecule. Input: O=C(CCl)N1CCCCC2(CCCCNC2)C1 (centres unmarked)
22

Returns the measured inhibition at 50 µM for the input molecule. Input: CCN1CCCN(C(=O)CCl)CC1
38

Returns the measured inhibition at 50 µM for the input molecule. Input: NC1CCCCN(C(=O)CCl)C1 (centres unmarked)
44

Returns the measured inhibition at 50 µM for the input molecule. Input: O=C(CCl)N1CCNCC(O)C1 (centres unmarked)
35

Returns the measured inhibition at 50 µM for the input molecule. Input: O=C(CCl)N(C1CCNCC1)C1CC1
27

###

# assay system: Recombinant pure human SQSTM1 protein (Homo sapiens)
# Construct: purchased Origene
# experiment: Inhibition of IA-Rhodamine labeling of SQSTM1 (gel-based, densitometry)
# Format: binding
# condition set: 50 μM of test compound (initial screen); 30 min at 37° C., then 100 nM IA-Rhodamine 1 hour; inhibition of target labeling by densitometry
Decision: inhibition at 50 µM >= 40% yields Met, all other cases yield Not met.

Field: example entries. Status: answers known.
Could you please find out whether CC1CCCCCN1C(=O)CCl (stereo not shown) [Compound 13] has inhibition at 50 µM that meets 40% or exceeds it?
Met

Could you please find out whether CC(C)N(C(=O)CCl)C1CCCN(C(=O)OC(C)(C)C)CC1 (stereo not shown) [Compound 8] has inhibition at 50 µM that meets 40% or exceeds it?
Met

Could you please find out whether CC(C)(C)OC(=O)N1CCC(N(C(=O)CCl)C2CC2)CC1 [Compound 6] has inhibition at 50 µM that meets 40% or exceeds it?
Met

Could you please find out whether CC1(CNC(=O)OCc2ccccc2)CCCN(C(=O)CCl)CC1 (stereo not shown) [Compound 35] has inhibition at 50 µM that meets 40% or exceeds it?
Not met

Could you please find out whether O=C(CCl)N1CCOCC(F)(F)C1 [Compound 50] has inhibition at 50 µM that meets 40% or exceeds it?
Not met

Others:
Could you please find out whether O=C(CCl)N(Cc1ccccc1)[C@H]1CCC[C@@H]1O [Compound 4] has inhibition at 50 µM that meets 40% or exceeds it?
Not met

Could you please find out whether O=C(CCl)N1CCCC(F)CC1 (stereo not shown) [Compound 20, 2-chloro-1-(4-fluoroazepan-1-yl)ethanone] has inhibition at 50 µM that meets 40% or exceeds it?
Not met

Could you please find out whether O=C(NCC1(O)CCCCN(C(=O)CCl)C1)OCc1ccccc1 (stereo not shown) [Compound 30] has inhibition at 50 µM that meets 40% or exceeds it?
Met

Could you please find out whether CC(C)(C)OC(=O)N1CCN(C(=O)CCl)CC(O)C1 (stereo not shown) [Compound 18] has inhibition at 50 µM that meets 40% or exceeds it?
Not met

Could you please find out whether O=C(CCl)N(Cc1ccccc1)C1CCCCC1 [Compound 2, N-benzyl-2-chloro-N-cyclohexylacetamide] has inhibition at 50 µM that meets 40% or exceeds it?
Met

Could you please find out whether O=C(CCl)N1CCCCC(O)(CF)C1 (stereo not shown) [Compound 32] has inhibition at 50 µM that meets 40% or exceeds it?
Not met

Could you please find out whether O=C(CCl)N(Cc1ccccc1)[C@H]1COC[C@@H]1O [Compound 10] has inhibition at 50 µM that meets 40% or exceeds it?
Not met
